system: SK-MEL-5; test: NCI tumour cell line growth inhibition, 48 h
Active and inactive are the calls of the source. Cut-off read from the data, not from the text of the source: active = GI50 up to about 1.1 µM and inactive = higher.
Labels: T (active), F (inactive)

[[record]]
compound = "C/C(=N\\N)C(CN(C)C)C(c1ccccc1)c1c(O)c2ccccc2oc1=O (stereo not drawn)"
category_label = "F"

[[record]]
compound = "NC1=CN(CCCO)C2=N/C(=C\\c3ccccc3)C(=O)N12"
category_label = "F"

[[record]]
compound = "O=C1OCC2C1C1c3ccccc3C(O)c3ccccc3C21 (stereo not drawn)"
category_label = "F"

[[record]]
compound = "COc1cccc2c1[C@H](OC)[C@]13O[C@@]1(C2=O)[C@H](O)[C@H](C)[C@@](O)(C(=O)[C@@H]1O[C@H]1C)[C@@H]3O"
category_label = "T"

[[record]]
compound = "O=C(Cn1ccnc1[N+](=O)[O-])c1ccccc1"
category_label = "F"

[[record]]
compound = "CCOC(=O)C1N(S(=O)(=O)c2ccc(C)cc2)CCC12C(c1ccc(OC)c(OC)c1)=Nc1ccccc12 (stereo not drawn)"
category_label = "F"

[[record]]
compound = "Cc1cc([N+](=O)[O-])ccc1Sc1c2ccccc2nc2ccccc12"
category_label = "F"

[[record]]
compound = "S=c1[nH]c2ccc(Br)cc2c(=S)s1"
category_label = "F"

[[record]]
compound = "CCOP(=O)(OCC)C(F)(F)CC1CCCCC1"
category_label = "F"

[[record]]
compound = "CCN1CCN(c2nc3ccccc3nc2C(=O)c2ccc(OC)cc2)CC1"
category_label = "F"

[[record]]
compound = "O=S(=O)(O)c1cc(S(=O)(=O)O)c2c(/N=N/c3cccc4ccccc34)c(O)ccc2c1"
category_label = "F"

[[record]]
compound = "CN(C)CCS/C(=N\\c1ccccc1)N1C=COC=C1"
category_label = "F"

[[record]]
compound = "COc1ccc(-c2cc(-c3ccc(Nc4ccnc5cc(Cl)ccc45)cc3)[nH]c(=O)c2C#N)c2ccccc12"
category_label = "F"

[[record]]
compound = "N#Cc1ccccc1NC(=O)/C(=N\\N)C(C(=O)c1ccncc1)C1OC(=O)c2ccccc21 (stereo not drawn)"
category_label = "F"

[[record]]
compound = "[N-]=[N+]=Nc1cc(=O)n(-c2ccccc2)c2ccccc12"
category_label = "F"

[[record]]
compound = "CCC1OC2C(CC=C(C)C)=C3OC(C)(O)C(C)(CC)C(O)C3=C3OC(=O)C=C1C32 (stereo not drawn)"
category_label = "F"

[[record]]
compound = "COc1cc2[nH]c(=O)c3cc(-c4ccccc4)cc4c(Cl)nc(c1OC)c2c43"
category_label = "F"

[[record]]
compound = "CCC1C(c2cc(OC)c(OC)c(OC)c2)c2cc3c(cc2OC1N1CCCC1)OCO3 (stereo not drawn)"
category_label = "T"

[[record]]
compound = "COc1ccc(C[N+]23C(CC[C@H]2c2ccccc2)CC[C@H]3c2ccccc2)cc1 (stereo partly drawn)"
category_label = "F"

[[record]]
compound = "CC1NC(=O)C2Cc3ccc(O)c(c3)Oc3ccc(cc3)C(O)C(C(=O)N2C)N(C)C(=O)C(C)NC(=O)C(Cc2ccc(O)cc2)N(C)C(=O)C(C)NC1=O (stereo not drawn)"
category_label = "F"

[[record]]
compound = "O=C(O)[C@H](Cc1ccccc1)NCCN1CCC[C@H]1C(=O)O"
category_label = "F"

[[record]]
compound = "COc1cccc(N2C(=O)CS(=O)(=O)C2c2cccc(Oc3ccccc3)c2)c1 (stereo not drawn)"
category_label = "F"

[[record]]
compound = "CSc1ccc(NC(=S)NN(C)C)cc1"
category_label = "F"

[[record]]
compound = "COC(=O)C(=O)C(C(=O)C(=O)Nc1cc(Cl)c(Cl)cc1Cl)c1nc2ccc([N+](=O)[O-])cc2nc1O (stereo not drawn)"
category_label = "F"

[[record]]
compound = "Cc1cccc(C2=NC(C)(C)C(C)(C)N=C2c2cccc(C)n2)n1"
category_label = "F"

[[record]]
compound = "CCOC(=O)C1(C)CCC(C(C(=O)O)C(=O)O)CC1=O (stereo not drawn)"
category_label = "F"

[[record]]
compound = "Cc1cn(C2CC(OP(=O)(O)OCC3OC(n4c[n+]([BH2-]C#N)c5c(=O)[nH]c(N)nc54)CC3O)C(CO)O2)c(=O)[nH]c1=O (stereo not drawn)"
category_label = "F"

[[record]]
compound = "CCCCCCCCCCCCCP(=O)(O)O"
category_label = "F"

[[record]]
compound = "CN(C)CC1CC/C(=C\\c2ccc3c(c2)OCO3)C1=O (stereo not drawn)"
category_label = "F"

[[record]]
compound = "O=C(/C=C/c1ccccc1)CCN1CCN(CCC(=O)/C=C/c2ccccc2)CC1"
category_label = "F"

[[record]]
compound = "CC(C)N(C(=O)c1cccc(C(=O)N(C(C)C)C(C)C)c1)C(C)C"
category_label = "F"

[[record]]
compound = "COc1cc([C@@H]2c3cc4c(cc3[C@@H](Nc3ccc([N+](=O)[O-])cc3C(=O)c3ccccc3)[C@H]3COC(=O)[C@H]23)OCO4)cc(OC)c1OC"
category_label = "T"

[[record]]
compound = "CCc1cn(C2CC(CO)C(CO)S2)c(=O)[nH]c1=O (stereo not drawn)"
category_label = "F"

[[record]]
compound = "CCOC(=O)C1(F)S(=O)(=O)OCCOS1(=O)=O"
category_label = "F"

[[record]]
compound = "N=c1c2c(=S)n(-c3ccccc3)c(=S)n(-c3ccccc3)c2nc(SCCN2CCCC2)n1-c1ccccc1"
category_label = "F"

[[record]]
compound = "CO[C@H]1/C=C/O[C@@]2(C)Oc3c(C)c(O)c4c(O)c(c(/C=N/N5CCN(C)CC5)c(O)c4c3C2=O)NC(=O)/C(C)=C\\C=C\\[C@H](C)[C@H](O)[C@@H](C)[C@@H](O)[C@@H](C)[C@H](OC(C)=O)[C@@H]1C"
category_label = "F"

[[record]]
compound = "COC(=O)[C@]1(C)CCC[C@]2(C)C3CC4OOC3(C=C4C(C)(C)O)CCC21 (stereo partly drawn)"
category_label = "F"

[[record]]
compound = "CCOC(=O)C1=C(C)NC(=O)NC1c1coc2cc(C)cc(C)c2c1=O (stereo not drawn)"
category_label = "F"

